The values you see were collected from patent US11160797B2.

Recorded pIC50, one value per entry.
# assay system: wild-type ALK2 (aa172-499) (Homo sapiens (Human), UniProt Q04771)
# Sequence (Q04771 172-499): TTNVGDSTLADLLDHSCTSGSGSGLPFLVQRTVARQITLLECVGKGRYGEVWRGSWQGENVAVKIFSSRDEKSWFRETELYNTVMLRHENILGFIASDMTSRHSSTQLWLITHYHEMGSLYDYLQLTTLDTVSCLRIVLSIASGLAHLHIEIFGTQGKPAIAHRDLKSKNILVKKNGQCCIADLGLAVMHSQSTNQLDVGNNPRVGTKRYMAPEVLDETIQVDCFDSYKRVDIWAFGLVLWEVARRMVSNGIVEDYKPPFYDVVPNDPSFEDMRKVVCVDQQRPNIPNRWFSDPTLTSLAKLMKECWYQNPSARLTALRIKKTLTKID
# method description: Caliper biochemical peptide phosphorylation assay, ALK2
# recorded conditions: Caliper peptide phosphorylation, 15 uM ATP; read-out: ALK2 IC50
The quantity pIC50 is defined as the negative base-10 logarithm of the molar concentration.

CN1C(=O)Cc2cc(-c3cncc(-c4ccc(=O)n(CC(F)(F)F)c4)c3)ccc21; 6.10
CCCN1C(=O)Cc2cc(-c3cncc(-c4ccc(=O)n(C(C)C)c4)c3)ccc21; 7.10
COCCN1C(=O)Cc2cc(-c3cncc(-c4ccc(=O)n(C(C)C)c4)c3)cnc21; 6.06
CCN1c2ccc(-c3cncc(-c4ccc(=O)n(C(C)C)c4)c3)cc2CS1(=O)=O; 6.85
CC(C)CCn1cc(-c2cncc(-c3ccc4c(c3)CC(=O)N4C)c2)ccc1=O; 6.04
CCc1cc(-c2cncc(-c3ccc4c(c3)CC(=O)N4C)c2)cn(C(C)C)c1=O; 6.80
CC(C)n1cc(-c2cncc(-c3ccc4c(c3)CC(=O)N4C)c2F)ccc1=O; 6.42

In the following, a different compound is considered.
Which measured pIC50 value corresponds to CC(C)n1cc(-c2cncc(-c3cnc4c(c3)CCC(=O)N4C)c2)ccc1=O ?
6.62
